Entries and their IC50 values follow.
tested on: PEDV (G1a type, SM98 strain); test: PEDV infection inhibition in Vero cells (PEDV detection kit on isolated RNA); assay type: cell-based, Porcine Epidemic Diarrhea virus; details: Porcine epidemic diarrhea virus, 48 h; Vero cells, 200 TCID50/ml PEDV, after 2 days; read-out: PEDV infection inhibition concentration IC50
Report the figure in mM without appending any unit label.

Some compounds with known IC50 results, for comparison:
{"compound": "O=C[C@@H](CO)O[C@H](C=O)n1cnc2c(=O)[nH]cnc21 [Dialdehyde-inosine, dialdehyde form of inosine]", "readout": "IC50", "value-observed": 0.448}
{"compound": "O=c1[nH]cnc2c1ncn2[C@@H](CO)OC(CO)CO [Acyclic diol-inosine, acyclic diol form of inosine]", "readout": "IC50", "value-observed": 2.77}
{"compound": "O=C[C@@H](CO)O[C@H](C=O)n1cnc2c(=O)[nH]c(=O)[nH]c21 [Dialdehyde-xanthosine, dialdehyde form of xanthosine]", "readout": "IC50", "value-observed": 0.398}
{"compound": "O=c1[nH]c(=O)c2ncn([C@@H](CO)OC(CO)CO)c2[nH]1 [Acyclic diol-xanthosine, acyclic diol form of xanthosine]", "readout": "IC50", "value-observed": 2.3}

Task item: For the compound shown here, Nc1nc2c(ncn2[C@@H](CO)OC(CO)CO)c(=O)[nH]1 [Acyclic diol-guanosine, acyclic diol form of guanosine] , give the reported IC50.
Reply: 1.78
